Endpoint Label: pIC50
pIC50 field: float, defined as -log10 of concentration (mol/L).

Please state recorded pIC50 (tested on hCK2α (Homo sapiens)) of O=C(O)c1c(Br)c(Br)c(Br)c2nn[nH]c12 [7-COOH-Br3Bt]
5.10

* * *

Biological target: hCK2α (Homo sapiens, UniProt P68400)
Construct: His-tag; made in house
Sequence (P68400 whole entry): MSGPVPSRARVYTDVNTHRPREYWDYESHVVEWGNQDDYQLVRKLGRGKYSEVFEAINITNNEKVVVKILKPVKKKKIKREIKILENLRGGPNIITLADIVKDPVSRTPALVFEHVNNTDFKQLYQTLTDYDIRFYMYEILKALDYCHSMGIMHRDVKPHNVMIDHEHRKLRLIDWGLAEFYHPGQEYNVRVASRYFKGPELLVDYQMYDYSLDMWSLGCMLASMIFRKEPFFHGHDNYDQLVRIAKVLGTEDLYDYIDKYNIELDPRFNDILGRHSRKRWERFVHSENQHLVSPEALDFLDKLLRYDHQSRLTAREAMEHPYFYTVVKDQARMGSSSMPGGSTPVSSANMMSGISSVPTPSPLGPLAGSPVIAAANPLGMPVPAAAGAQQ
Test: Relaxation-filtered 1H NMR (transverse relaxation) of peptides in the presence of hCK2α
Assay type: binding
Conditions: same samples, slower component of the global two-exponential fit, 25 °C
Method: NMR samples containing tested peptides and hCk2α were prepared in 25 mM Tris–HCl (pH 7, 0.25 M NaCl) buffer with 10% D2O. The protein concentration was 25 μM, and a 100-fold peptide excess (2.5 mM) was used throughout the studies. […] NMR data were further processed and analyzed with the SpinWorks software (version 4.2.8.0), using cosine-squared window function and Gaussian filter resulting in 0.3 Hz broadening with no solvent filter applied prior to Fourier transformation. […]
Endpoint Label: R2,s, relaxation rate for the free peptide (s⁻¹)
// note: answer is a bare numeric in s⁻¹

Recorded R2,s, relaxation rate for the free peptide of `EETEED-NH2` , please.
2.2

Which R2,s, relaxation rate for the free peptide value is on record for `EETEDE-NH2` ?
3.7

What R2,s, relaxation rate for the free peptide value was documented for this substance, `EETDEE-NH2` ?
2.3

Please give the measured R2,s, relaxation rate for the free peptide for this substance: `EDTEEE-NH2`
1.5

Entry `DETEEE-NH2` : reported R2,s, relaxation rate for the free peptide = ?
2.2
